tested on: OVCAR-4 ovarian; assay: NCI tumour cell line growth inhibition, 48 h
Where a SMILES comes first, the peptide text is derived from it. [ ]: non-standard residue; d: D form. ξ: configuration not given here. Pentanoyl(2-O,4-OH,5-Cl) = O=C(O)C(O)CC(O)CCl; Ile(3ξ) = CCC(C)[C@H](N)C(=O)O; NMeV = CN[C@H](C(=O)O)C(C)C; NMeA = CN[C@@H](C)C(=O)O; βAla = NCCC(=O)O
Would you kindly list TGI for each of these molecules?

Solved entries (count: 8):
molecule	val
CN(C)c1ccc(-c2c(C#N)c(-c3ccccc3)n(NS(=O)(=O)c3ccccc3)c(=O)c2C#N)cc1	> 100 µM
CCOc1ccc2c(c1)[n+]([O-])c(C(N)=O)c(N)[n+]2[O-]	> 100 µM
COc1cc2c(c3nc4ccccc4nc13)-c1ccc(SC)c(=O)cc1[C@@H](NC(C)=O)CC2	> 69.2 µM
CC1=NC2(C(=O)O)C3(C(=O)O)N=C(C)OC3(C(F)(F)F)C2(C(F)(F)F)O1 (centres undefined)	> 100 µM
CC(C)N1CCOC(c2ccc(O)c(O)c2)C1 (centres undefined)	> 100 µM
COC(=O)C12C(=O)CC3CCC1C32C(=O)OC (centres undefined)	> 100 µM
CCC(C)[C@@H]1NC(=O)[C@@H]2CCCN2C(=O)C(CC(O)CCl)OC(=O)CCNC(=O)[C@H](C)N(C)C(=O)[C@H](C(C)C)N(C)C1=O (some centres undefined) (cyclo([Ile(3ξ)][NMeV][NMeA][βAla][Pentanoyl(2-O,4-OH,5-Cl)]P))	> 100 µM
O=C1O/C(=C(\Br)c2ccc([N+](=O)[O-])cc2)c2ccccc21	> 100 µM

Turning to the following molecule.
// TGI lookup, key: Clc1cccc(-c2cc(-c3ccc4c(c3)OCCO4)[nH]n2)c1
49.5 µM

* * *

tested on: RXF 393 renal; assay: NCI tumour cell line growth inhibition, 48 h
Would you kindly list TGI for each of these molecules?

Solved entries (count: 3):
molecule	TGI
CCN(CC)C1=Nc2ccccc2-n2ccnc2C1	> 100 µM
O=c1[nH]nc(-c2ccc3ccccc3c2)[nH]1	> 100 µM
CN1CCN(c2n[nH]c(=O)c3c2nnn3Cc2ccccc2)CC1	> 100 µM

Below are 5 molecules. Give each one its TGI.
1. c1ccc2[nH]c(-c3ccc(Nc4nc(N5CCCC5)nc5[nH]ncc45)cc3)nc2c1
2. CN(N=O)C(=O)NC(CCCCNC(=O)OCc1ccccc1)C(=O)OCc1ccccc1 (stereo unspecified)
3. COc1ccc(-c2nn3ncccc3c2-c2ccnc(Nc3ccc(F)c(F)c3)n2)cc1
4. CC(C)N1CCOC(c2ccc(O)c(O)c2)C1 (stereo unspecified)
5. COc1cccc(C2CC(C)(O)Oc3cc4c(cc32)OCO4)c1 (stereo unspecified)

1. 2.27 µM
2. 61.8 µM
3. > 25 µM
4. > 100 µM
5. > 100 µM

Below are 3 molecules. Give each one its TGI.
1. CC1COS(=O)N1c1ccccc1 (stereo unspecified)
2. COC(=O)C1=C(C(=O)OC)C23CC4CCC2(C(=O)C1O3)C4(C)C (stereo unspecified)
3. O=C(O)c1ccccc1NS(=O)(=O)c1ccc(Cl)cc1

1. > 100 µM
2. > 100 µM
3. > 100 µM

Source listed as PubChem BioAssay (NCI).
